assay method text: chemical genetic growth profiling, strain panel (AID 1159580);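 note: tested at 20 µM; growth read once vehicle control cultures reached saturation at 30 °C; 1 = growth at the plate median or of vehicle wells; lower values mean less growth of the strain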
measurement setup: S. cerevisiae deletion strains, growth OD, locus YFR010W, strain ubp6, active compounds read low
The campaign covered roughly 5,500 compounds. About 2,000 (36%) were called active. Not shown: some 18% with an inconclusive outcome. The list shows a part of the results.
normalized growth overview
// return just the number, without any unit appended

Example entries and their recorded answers appear below.
| molecule | normalized growth |
| --- | --- |
| Cc1ncc(CNC(=O)N(CCCl)N=O)c(N)n1 | 1.01 |
| CCCCCCCCCCCCCc1ccco1 | 0.96 |
| CC(C)NCC(O)COc1cccc2[nH]ccc12 (stereo not given) | 0.961 |
| CCn1cc(C(=O)O)c(=O)c2cc(F)c(N3CCNCC3)nc21 | 0.984 |
| C=C[C@@](C)(O)CCC1C(=C)C[C@H](O)C2C(C)(C)CCCC12C (stereo not given in full) | 1.01 |
| O=C1CCC(N2C(=O)c3ccccc3C2=O)C(=O)N1 (stereo not given) | 1.02 |
| NS(=O)(=O)c1cc2c(cc1Cl)NC=NS2(=O)=O | 1.02 |
| C=C1CCC2[C@](C)(CO)[C@H](O)CC[C@@]2(C)[C@@H]1C/C=C1/C(=O)OC[C@H]1O (stereo not given in full) | 1.02 |

Suppose we examine the molecule CC[C@]1(O)CC2CN(CCc3c([nH]c4ccccc34)[C@@](C(=O)OC)(c3cc4c(cc3OC)N(C)[C@H]3[C@@](O)(C(=O)OC)[C@H](OC(C)=O)[C@]5(CC)C=CCN6CC[C@]43[C@@H]65)C2)C1 (stereo not given in full) ; what normalized growth value has been reported?
0.948

Suppose we examine the molecule COc1ccc(C(CN(C)C)C2(O)CCCCC2)cc1 (stereo not given) ; what normalized growth value has been reported?
0.987

Suppose we examine the molecule `CN1CC(=O)N=C1N` ; what normalized growth value has been reported?
1.03

Suppose we examine the molecule CCN1CCCC(OC(=O)C(c2ccccc2)c2ccccc2)C1 (stereo not given) ; what normalized growth value has been reported?
0.99

Suppose we examine the molecule `C=CCc1ccc(O)c(OC)c1` ; what normalized growth value has been reported?
0.999

---

assay method text: chemical genetic growth profiling, strain panel (AID 1159580);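 note: tested at 20 µM; growth read once vehicle control cultures reached saturation at 30 °C; 1 = growth at the plate median or of vehicle wells; lower values mean less growth of the strain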
measurement setup: S. cerevisiae deletion strains, growth OD, locus YNL209W, strain ssb2, active compounds read low
Out of some 5,500 compounds screened, about 2,000 (36%) were called active. About 18% were inconclusive and are not listed. The list shows a part of the results.
normalized growth overview
// return just the number, without any unit appended

Example entries and their recorded answers appear below.
| molecule | normalized growth |
| --- | --- |
| CNCCC(Oc1ccc(C(F)(F)F)cc1)c1ccccc1 (configuration not stated) | 1.01 |
| CN(C)CCOC(c1ccc(Cl)cc1)c1ccccn1 (configuration not stated) | 1.02 |
| CN1CC(=O)N=C1N | 1.03 |
| CC(C)NCC(O)COc1cccc2[nH]ccc12 (configuration not stated) | 0.99 |
| CN(C)CCN(Cc1ccccc1)c1ccccn1 | 1 |
| CN(C)CCN(Cc1cccs1)c1ccccn1 | 1 |

Could you now look at the following molecule, please?
Suppose we examine the molecule `COc1ccc(C(=O)O)cc1OC` ; what normalized growth value has been reported?
0.985

---

normalized growth overview
assay method text: chemical genetic growth profiling, strain panel (AID 1159580);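 note: tested at 20 µM; growth read once vehicle control cultures reached saturation at 30 °C; 1 = growth at the plate median or of vehicle wells; lower values mean less growth of the strain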
measurement setup: S. cerevisiae deletion strains, growth OD, locus YNL207W, strain RIO2, active compounds read low
Among all 5,500 compounds or so, about 2,000 (36%) were called active. Inconclusive results (about 18%) are left out. Some of the results follow.
// return just the number, without any unit appended

Example entries and their recorded answers appear below.
| compound structure | normalized growth |
| --- | --- |
| N#C/C(=N/Nc1ccccc1)C(=O)c1ccccc1OC(F)(F)F | 0.905 |
| CC(C)c1ccc(COC(=O)Nc2ccc(CSc3ccc(Cl)cc3)o2)cc1 | 0.982 |
| CC(=O)c1ccc(Cl)c(NS(=O)(=O)c2cc(Cl)c(Cl)cc2Cl)c1 | 0.906 |

Could you now look at the following compound, please?
Suppose we examine the compound `Cc1cc(C)cc(Sc2ccc3nnc(-c4ccccc4)n3n2)c1` ; what normalized growth value has been reported?
0.989
